system: Saccharomyces cerevisiae; test: protein stability index of tFT-peptide fusion (C-terminal peptide) (PSI (0-1 scale)); higher = more stable (slower turnover); conditions: genetic background: cdc34-1; temperature: 37 C;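 also: PSI is a weighted mean of sequencing reads over stability bins, variants kept only with over 10 reads, mCherry proximal and sfGFP distal, peptide attached via GGGS linker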
quantity: protein stability index
Numbers only.

Here's what some known entries look like.
In [3]: df
Out[3]:
   sequence_text               target_desc  observed_measurement
0   VYVRYYVRVVVI  Saccharomyces cerevisiae                0.0256
1   VLLSSSLVFLIS  Saccharomyces cerevisiae                 0.597
2   GGGVGVVWVRLG  Saccharomyces cerevisiae                 0.429
3   FGVSLFLPLSVV  Saccharomyces cerevisiae                 0.402
4   FPLGMFWVCFFV  Saccharomyces cerevisiae                 0.423
5   AFRFFWFFFFTS  Saccharomyces cerevisiae                 0.536
6   RGSLYLILVLIG  Saccharomyces cerevisiae                 0.194
7   AHPTLILTNKIA  Saccharomyces cerevisiae                 0.578

For each of the items listed, what is its protein stability index?
1. PDCRPPLVRCLL
2. LGCLVWGGVWGV
3. VVQCRFPTPCVV
4. LINHSWLLLSVL
5. TGPVFVSFRLLH

**A:**
1: 0.958; 2: 0.706; 3: 0.486; 4: 0.368; 5: 0.703

Please go through the list and note protein stability index for each sequence.
1. LPPFLSSLPSSP
2. RFLFYSFPIHTL
3. IMGGLRHRIEVY
4. SFVCFFLNLFVY
5. GVCSFFVCVFFV
6. VGAVGVCILFVW

**A:**
[0.715, 0.442, 0.366, 0.0549, 0.195, 0.203]

----------
test system: Saccharomyces cerevisiae; assay: protein stability index of tFT-peptide fusion (C-terminal peptide) (PSI (0-1 scale)); higher = more stable (slower turnover); conditions: genetic background: wild type; temperature: 30 C
Decision: protein stability index compared against 0.7; not below it gives fulfilled, below it gives not fulfilled.

>>> df
   sequence_text          group
0   RATLPPSAASLP  not fulfilled
1   KCSLVLTVARSY  not fulfilled
2   SFFVCAGFWVLC  not fulfilled
3   GMGTWSSNRREC      fulfilled
4   GGGVYPAGVVSG  not fulfilled

**Q:** Given "PLPPPPLLPFVL" , state whether its protein stability index is at least 0.7.
**A:** fulfilled

**Q:** For this sequence, is measured protein stability index 0.7 or higher? "PPPPSPPSPPPP"
**A:** not fulfilled

**Q:** Does the reported protein stability index for "PRLWLYCLIISL" fall at or above the 0.7 mark?
**A:** not fulfilled

**Q:** Is reported protein stability index greater than or equal to 0.7 here: "TKHRFPKYRYLG"
**A:** not fulfilled

**Q:** Does the reported protein stability index for "CEKGLFLRSAYV" fall at or above the 0.7 mark?
**A:** not fulfilled

**Q:** Kindly determine if protein stability index recorded for "TTGGRGSRGGGR" is above or exactly 0.7.
**A:** fulfilled

----------
test system: Saccharomyces cerevisiae; assay: protein stability index of tFT-peptide fusion (C-terminal peptide) (PSI (0-1 scale)); higher = more stable (slower turnover); details: genetic background: wild type; temperature: 30 C
quantity: protein stability index
Numbers only.

Take a look at these entries with their results.
>>> print(df.to_string())
   sequence_text                 quantity  observed_measurement
0   GGWLGGLGCFMV  protein stability index                 0.708
1   ASRKRKVAQESR  protein stability index                 0.688
2   PPLCPPLPFLHP  protein stability index                 0.885
3   WFSMSRLWVFYS  protein stability index                 0.217

Required: protein stability index, one value per sequence below.
1. VAGGWVPGRGEG
2. PYTPLLLSTLAP
3. LLPVFSYVPTFH
4. DSPRTFWGPTQK
5. PCLQQCLLIFLP

**A:**
1: 0.69; 2: 0.69; 3: 0.648; 4: 0.699; 5: 0.566

**Q:** For the sequence "YVIGLLFVVSGV" , give its reported protein stability index.
**A:** 0.39
